B1: TPR t1 (parent)
chain: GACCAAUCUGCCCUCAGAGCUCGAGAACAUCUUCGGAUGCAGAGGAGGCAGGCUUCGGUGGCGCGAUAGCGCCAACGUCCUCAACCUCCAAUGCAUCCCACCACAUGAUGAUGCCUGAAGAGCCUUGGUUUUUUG

variants of: B1; experiment: polymerase ribozyme fitness, log enrichment relative to wild type (log ratio); higher = more active; in vitro selection for triplet polymerase activity

| mutation_id | polymerase ribozyme fitness (log ratio) |
| --- | --- |
| C8G C15U A18C C53A U55A C56G | -1.96 |
| C13G G71C A91U | -3.97 |
| A41U C62G | -3.92 |
| G17U C70A C88A A90G | -4.06 |
